Consider the following compounds and their measured activation readings.
Target: Thyrotropin-releasing hormone receptor (Homo sapiens) (UniProt P34981)
Sequence (P34981 whole entry, looked up): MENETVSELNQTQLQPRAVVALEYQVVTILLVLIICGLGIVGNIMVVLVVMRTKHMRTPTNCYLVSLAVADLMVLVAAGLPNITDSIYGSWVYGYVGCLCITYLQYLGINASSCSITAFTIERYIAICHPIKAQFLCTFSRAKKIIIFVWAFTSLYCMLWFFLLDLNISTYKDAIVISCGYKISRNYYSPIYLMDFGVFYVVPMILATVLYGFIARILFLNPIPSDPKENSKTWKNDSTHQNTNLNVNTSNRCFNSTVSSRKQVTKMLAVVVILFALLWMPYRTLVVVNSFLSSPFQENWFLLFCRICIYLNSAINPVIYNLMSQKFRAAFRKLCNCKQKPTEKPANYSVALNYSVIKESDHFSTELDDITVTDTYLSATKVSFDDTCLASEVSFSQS
Experiment: qHTS for Small Molecule Agonists and Allosteric Enhancers of Human TRH Receptor: Validation Screen for Agonists (AID 493127);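 note: intracellular calcium rise by fluo-8 fluorescence before TRH EC20 addition; 0% is about no effect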
Conditions: TRH receptor agonist cell assay; at 2 µM; stronger effect = higher value
The reply should contain only the number, in %.

O=C(O)CNC(=O)C(CS)Cc1ccccc1 (stereo not given)    0.625
C[N+](C)(CCCCCC[N+](C)(C)CCCN1C(=O)c2cccc3cccc(c23)C1=O)CCCN1C(=O)c2cccc3cccc(c23)C1=O    -0.188

# activation of Clc1ccc(N2CCN(Cc3c[nH]c4ncccc34)CC2)cc1 = 2.19

# activation of NCCSSCCN = -0.375

# activation of N#C/C(=C\c1ccc(O)c(O)c1)C(=O)NCc1ccccc1 = 1.31

# activation of Fc1ccc(C(OCCCc2cnc[nH]2)c2ccc(F)cc2)cc1 = -5.06

# activation of O=Nc1ccc2oc(=O)ccc2c1 = -0.5

# activation of CC(=O)N[C@H](C(=O)O)C(C)(C)SN=O = 0.812

# activation of O=C(O)[C@@H]1C[C@H](C(=O)O)N1 = -0.25

# activation of CN(C)c1ccc(/C=C2\C(=O)Nc3ccccc32)cc1 = -8.75

# activation of O=C(O)c1cc([N+](=O)[O-])ccc1NCCCc1ccccc1 = 0

# activation of COc1cccc(C(=O)NCCN2CCN(c3ccc(Cl)cc3)CC2)c1 = 0.562

# activation of NC(=O)C(=O)O = 1

# activation of O=c1[nH]c2cc(Cl)c(Cl)cc2[nH]c1=O = 0.75

# activation of CN1CCc2cccc3c2C1Cc1ccc(O)c(O)c1-3 (stereo not given) = 0.125

###

Target: Peroxisome proliferator-activated receptor delta (Homo sapiens) (UniProt Q03181)
Sequence (Q03181 whole entry, looked up): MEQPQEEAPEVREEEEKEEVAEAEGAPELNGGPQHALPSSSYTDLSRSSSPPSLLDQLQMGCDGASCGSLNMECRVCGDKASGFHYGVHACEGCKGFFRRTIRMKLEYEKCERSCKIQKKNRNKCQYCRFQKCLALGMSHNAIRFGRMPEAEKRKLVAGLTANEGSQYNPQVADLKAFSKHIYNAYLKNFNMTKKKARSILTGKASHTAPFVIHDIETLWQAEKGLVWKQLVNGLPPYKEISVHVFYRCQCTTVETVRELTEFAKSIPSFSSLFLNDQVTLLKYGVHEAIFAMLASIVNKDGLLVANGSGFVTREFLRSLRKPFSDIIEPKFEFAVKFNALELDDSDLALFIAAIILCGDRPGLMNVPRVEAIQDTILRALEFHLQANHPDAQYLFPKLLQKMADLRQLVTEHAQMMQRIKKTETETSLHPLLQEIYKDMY
Assay: qHTS assay for small molecule antagonists of peroxisome proliferator-activated receptor delta signaling (AID 588535)
Conditions: HEK293T PPARd-UAS-bla, beta-lactamase FRET ratio, 18 h; series mostly up to 76.7 µM
Inconclusive results are not listed. Activity calls are given as the source filed them. Calls come from the whole dose curve; as a rule, active = well fitted inhibition curve with a large enough effect in the signal ratio, with a control signal flat (not every such curve was filed as active); inconclusive = small, poorly fitted or top-dose-only effect, or effect the other way, or a change in a side signal; inactive = no such curve, though single readings can be large or run the other way; the % refers to the signal ratio.
Give one outcome, nothing more. List: 1 (active), -1 (inactive)

Previously resolved entries follow.
CC(C)OC(=O)c1cc(C(=O)OC(C)C)cc([N+](=O)[O-])c1    -1
C#C[C@]1(O)CC[C@H]2[C@@H]3CCc4cc(O)ccc4[C@H]3CC[C@@]21C    -1
CCCOC(=O)c1ccc(O)cc1    -1
COc1cc(CNC(=O)CCCC/C=C/C(C)C)ccc1O    -1
O=c1cc(-c2ccccc2)oc2ccccc12    -1
O=C(OCc1ccccc1)c1ccccc1    -1
c1cnc2c(c1)ccc1cccnc12    1
O=C(O)[C@H](O)[C@@H](O)[C@H](O)[C@H](O)CO    -1

input: How did this test come out for Nc1ccc(O)c(C(=O)O)c1 ?
output: -1

input: How did this test come out for Nc1nc2ccc([N+](=O)[O-])cc2s1 ?
output: -1

input: How did this test come out for CCCCCCCCCCCCCCCC(=O)OC(C)C ?
output: -1

input: How did this test come out for Nc1cc(-c2ccncc2)c[nH]c1=O ?
output: -1

input: How did this test come out for CC(C)NCC(O)COc1cccc2ccccc12 (stereo not drawn) ?
output: -1

###

Test system: P94_40
Test: qHTS profiling for inhibitors of Plasmodium falciparum proliferation (AID 504749); note: nearly all actives have a fitted effect of over 60% in size
Settings: P. falciparum in erythrocytes, SYBR Green DNA, 72 h; series mostly up to 28.7 µM
Experimental: NIH National Institute of Allergy and Infectious Diseases [NIAID] NIH Chemical Genomics Center [NCGC] […] Because mature erythrocytes lack DNA, only Plasmodium-derived DNA is detected. NCGC Assay Protocol Summary: The SYBR Green viability assay was adapted from a method described previously (Plouffe et al., 2008). […] The following morning, fluorescence intensity at 485(14) nm excitation and 535(25) nm emission wavelengths was measured on an EnVision (Perkin Elmer) plate reader. […]
Records with an inconclusive call do not appear. Activity calls are given as the source filed them. The call rests on the fitted dose curve; in most records, active means well fitted inhibition curve with a large enough effect; inconclusive means small, poorly fitted or top-dose-only effect; inactive means flat fitted curve, though single readings scatter.
Give one outcome, nothing more. List: t (active), f (inactive)

Previously resolved entries follow.
CCCCCCCCCCCC(=O)[O][Sn]([CH2]CCC)([CH2]CCC)[O]C(=O)CCCCCCCCCCC    f
CN1[C@@H](CC(=O)c2ccccc2)CCC[C@H]1C[C@H](O)c1ccccc1    t
O=C(O)[C@H](CC(=O)N1C[C@H]2CCCC[C@H]2C1)Cc1ccccc1    f
Nc1ccc(O)c(C(=O)O)c1    f

Turning to the following compound.
input: How did this test come out for CCCCC[C@H](O)/C=C/[C@@H]1[C@@H](C/C=C\CCCC(=O)O)[C@@H](O)C[C@H]1O ?
output: f

###

Experiment: qHTS assay to identify small molecule inhibitors of chordoma cells - UCH-1 (AID 1259355); note: nearly all actives have a fitted effect of over 55% in size
Settings: UCH-1 chordoma viability, CellTiter-Glo, 48 h, combination, with auranofin plus four topoisomerase inhibitors; series mostly up to 46.1 µM
Records with an inconclusive call do not appear. Calls of active or inactive are those of the source. Calls come from the whole dose curve; as a rule, active = well fitted cell-killing curve with a large enough effect; inconclusive = small, poorly fitted or top-dose-only effect, or effect the other way; inactive = no such curve, though single readings can be large or run the other way.
Give one outcome, nothing more. List: yes (1) = active, no (0) = inactive

Previously resolved entries follow.
CC(=O)O[C@H]1C[C@@]2(C)[C@@H](C[C@@H](O)[C@H]3[C@@]4(C)CC[C@@H](O)[C@@H](C)[C@@H]4CC[C@@]32C)/C1=C(\CCC=C(C)C)C(=O)O    no (0)
COc1cccc2c1C(=O)c1c(O)c3c(c(O)c1C2=O)C[C@@](O)(C(=O)CO)C[C@@H]3O[C@H]1C[C@H](N)[C@H](O[C@@H]2CCCCO2)[C@H](C)O1    yes (1)
CCCCC1C(=O)N(c2ccccc2)N(c2ccc(O)cc2)C1=O (stereo not given)    no (0)
c1ccc2sc(SSc3nc4ccccc4s3)nc2c1    no (0)
CC(C(=O)O)c1ccc(C(=O)c2cccs2)cc1 (stereo not given)    no (0)
C=CCCCCCCCCC(=O)O    no (0)
Cc1ccc(C(=O)c2ccc(CC(=O)O)n2C)cc1    no (0)
COc1cc(CNC(=O)CCCC/C=C/C(C)C)ccc1O    no (0)
COc1cc(/C=C/C(=O)CC(=O)/C=C/c2ccc(O)c(OC)c2)ccc1O    no (0)

Turning to the following molecule.
input: How did this test come out for CCOC(=O)c1ccccc1O ?
output: no (0)

###

Assay: Drug repurposing screens with cells derived from glioblastoma tumor samples (AID 1345199); note: % is set by controls: 0 for no effect and ±100 for the full control effect; nearly all actives have a fitted effect of over 40% in size
Conditions: GBM patient neurospheres viability, ATP luminescence, 48 h; at 45.9 µM (top of the series); tumour line D
Inconclusive results are not listed.
Consider the following compounds and their measured activity, negative = cell killing readings.
The reply should contain only the number, in %.

# activity, negative = cell killing of Cc1c(C(=O)O)c(O)cc2c1C(=O)c1c(O)c([C@@H]3O[C@H](CO)[C@@H](O)[C@H](O)[C@H]3O)c(O)c(O)c1C2=O = -27.3

# activity, negative = cell killing of CC(=O)c1ccc(OCC(=O)N2CCCCC2)cc1 = -17.5

# activity, negative = cell killing of O=C(/C=C/c1ccccc1)NCCO = -5.87

# activity, negative = cell killing of c1ccc2sc(SN3CCOCC3)nc2c1 = -19.8

# activity, negative = cell killing of CCCCCCCCCCCCCCCCCC(=O)O = -11.1

###

Test system: HeLa
Assay: Primary qHTS to identify gynecologic anti-cancer compounds using libraries of approved drugs and bioactive compounds (AID 1345084); note: % is set by controls: 0 for no effect and ±100 for the full control effect; nearly all actives have a fitted effect of over 55% in size
Conditions: Gynecologic cancer cell panel viability, ATPlite luminescence, 48 h; series mostly up to 57.5 µM
Results filed as inconclusive are left out. Calls of active or inactive are those of the source. Calls come from the whole dose curve; as a rule, active = well fitted cell-killing curve with a large enough effect; inconclusive = small, poorly fitted or top-dose-only effect, or effect the other way; inactive = flat fitted curve, though single readings scatter.
observable: outcome

Examples from the recorded data:
CN1[C@@H]2CC[C@H]1CC(OC(=O)C(CO)c1ccccc1)C2 (stereo partly specified)    inactive
C[C@H](O)[C@H](O)[C@H]1CNc2nc(N)[nH]c(=O)c2N1    inactive
CNC(=O)c1c(I)c(NC(=O)CCCCC(=O)Nc2c(I)c(C(=O)O)c(I)c(C(=O)NC)c2I)c(I)c(C(=O)O)c1I    inactive
Nc1ccc(C(=O)O)c(O)c1    inactive
COc1ccc(-c2cc(=S)ss2)cc1    inactive

# outcome of Cc1cc(O)c2ccccc2c1O = inactive

###

Molecular target: Flap endonuclease 1 (Homo sapiens) (UniProt P39748)
Sequence (P39748 whole entry, looked up): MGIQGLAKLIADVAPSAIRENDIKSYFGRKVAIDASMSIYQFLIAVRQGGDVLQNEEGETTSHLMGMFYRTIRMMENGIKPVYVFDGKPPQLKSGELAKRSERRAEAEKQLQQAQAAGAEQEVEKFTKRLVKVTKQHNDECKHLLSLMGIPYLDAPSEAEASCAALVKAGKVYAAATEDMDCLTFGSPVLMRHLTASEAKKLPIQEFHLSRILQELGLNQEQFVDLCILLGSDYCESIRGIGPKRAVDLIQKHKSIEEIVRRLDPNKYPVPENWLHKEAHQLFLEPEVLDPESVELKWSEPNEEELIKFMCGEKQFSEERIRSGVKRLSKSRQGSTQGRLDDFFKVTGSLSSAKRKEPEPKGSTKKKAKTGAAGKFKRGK
Assay: qHTS Validation Assay for the Inhibitors of Human Flap endonuclease 1 (FEN1) (AID 488816)
Conditions: FEN1 nuclease activity, fluorogenic DNA substrate; series mostly up to 57.1 µM
The source made the active and inactive calls. Calls come from the whole dose curve; as a rule, active = well fitted inhibition curve with a large enough effect; inconclusive = small, poorly fitted or top-dose-only effect; inactive = flat fitted curve, though single readings scatter.
Give one outcome, nothing more. List: label 1 (active), label 0 (inactive)

c1cnc2c(c1)ccc1cccnc12    label 0
O=C(c1ccc(Cl)cc1)N1CCN(c2ccc([N+](=O)[O-])c3ncccc23)CC1    label 0
OC[C@H]1O[C@@H](n2cnc3c(Nc4ccccc4)ncnc32)[C@H](O)[C@@H]1O    label 0
N#C/C(=C\c1ccc(O)c(O)c1)C(=O)NCCCc1ccccc1    label 0
CC[C@@H](C)[C@H]1O[C@]2(CC[C@H]1C)C[C@@H]1C[C@@H](CC=C(C)[C@@H](O[C@H]3C[C@H](OC)[C@@H](O[C@H]4C[C@H](OC)[C@@H](O)[C@H](C)O4)[C@H](C)O3)[C@@H](C)C=CC=C3CO[C@@H]4[C@H](O)C(C)=C[C@@H](C(=O)O1)[C@]34O)O2    label 0
N#C/C(=C\c1c[nH]c2ccccc12)C(=O)c1ccc(O)c(O)c1    label 1

input: How did this test come out for C[N+](C)(C)CCOP(=O)(O)OP(=O)([O-])OC[C@H]1O[C@@H](n2ccc(N)nc2=O)[C@H](O)[C@@H]1O ?
output: label 0

input: How did this test come out for CCCCC/C=C\CC(O)/C=C/c1cccc(CC(O)CCCCO)n1 (stereo unspecified) ?
output: label 0

input: How did this test come out for CC(=O)/C=C1\C(=O)N(C)c2ccccc21 ?
output: label 0

input: How did this test come out for CN(C)CCC(c1ccc(Cl)cc1)c1ccccn1 (stereo unspecified) ?
output: label 0

input: How did this test come out for CCCCCCCC/C=C\CCCCCCCC(=O)NCCO ?
output: label 0
